Measured values drawn from patent EP4644383A1 for this set.

Listing of entries alongside the reported IC50.
# assaySystem: FGFR2 (Homo sapiens)
# Construct: FGFR2's cytoplasmic domain [399-821 (terminal) amino acids]; purchased Carna 08-134
# Sequence (P21802 399-821): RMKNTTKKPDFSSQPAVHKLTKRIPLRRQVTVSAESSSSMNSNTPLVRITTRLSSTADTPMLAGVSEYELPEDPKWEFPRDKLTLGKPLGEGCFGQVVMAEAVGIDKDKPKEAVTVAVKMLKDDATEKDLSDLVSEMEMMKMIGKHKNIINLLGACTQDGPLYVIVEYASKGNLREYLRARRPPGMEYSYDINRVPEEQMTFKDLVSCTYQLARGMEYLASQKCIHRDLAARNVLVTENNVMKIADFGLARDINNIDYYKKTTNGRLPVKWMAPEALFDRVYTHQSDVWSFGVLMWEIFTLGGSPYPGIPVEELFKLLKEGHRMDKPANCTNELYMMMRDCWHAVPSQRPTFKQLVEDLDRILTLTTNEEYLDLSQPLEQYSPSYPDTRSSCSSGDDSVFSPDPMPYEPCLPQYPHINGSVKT
# assay: FGFR2 kinase activity inhibition assay (LanthaScreen TR-FRET)
# Type: biochemical
# testConditions: FGFR2 kinase, TR-FRET; read-out: IC50 (nM) FGFR2

| compound | IC50 |
| --- | --- |
| CC(Oc1ccc2[nH]nc(-c3cnn(C)c3)c2c1)c1cccc2nnccc12 (stereo not shown) | 1 to 10 nM |
| Cc1cn2nccc2c(C(C)Oc2ccc3[nH]nc(-c4cnn(C)c4)c3c2)n1 (stereo not shown) | 1 to 10 nM |
| CNCCNC(=O)c1ccc2[nH]nc(-c3cn(C)nn3)c2c1 | > 100 nM |
| CC(Oc1ccc2[nH]nc(-c3cnn(C4CN(C(=O)CO)C4)c3)c2c1)c1cc(Cl)cc2ncccc12 (stereo not shown) | 10 to 100 nM |

====

# assaySystem: FGFR3 (Homo sapiens, UniProt P22607)
# Construct: FGFR3's cytoplasmic domain [436-806 (terminal) amino acids]; purchased Carna 08-135
# Sequence (P22607 436-806): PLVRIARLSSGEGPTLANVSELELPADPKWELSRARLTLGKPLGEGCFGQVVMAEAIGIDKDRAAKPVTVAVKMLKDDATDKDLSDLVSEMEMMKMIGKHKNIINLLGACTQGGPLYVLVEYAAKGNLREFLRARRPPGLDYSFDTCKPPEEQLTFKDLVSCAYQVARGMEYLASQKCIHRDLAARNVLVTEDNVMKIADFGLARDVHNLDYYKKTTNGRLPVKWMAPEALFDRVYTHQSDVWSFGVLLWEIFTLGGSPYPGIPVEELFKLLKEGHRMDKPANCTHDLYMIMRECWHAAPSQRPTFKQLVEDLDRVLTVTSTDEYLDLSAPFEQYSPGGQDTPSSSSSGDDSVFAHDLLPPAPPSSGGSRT
# assay: FGFR3 kinase activity inhibition assay (LanthaScreen TR-FRET)
# Assay type: biochemical
# testConditions: FGFR3 kinase, TR-FRET; read-out: IC50 (nM) FGFR3
Listing of entries alongside the reported IC50.
readoutName: IC50

| compound | readoutName | measurement |
| --- | --- | --- |
| CC(Oc1ccc2[nH]nc(-c3cnn(C4CN(C(=O)C(C)(C)O)C4)c3)c2c1)c1cc(Cl)cc2ncccc12 (centres unmarked) [Example 206] | IC50 | 1 to 10 nM |
| CNCCNC(=O)c1ccc2[nH]nc(-c3nc(-c4ccccc4)c[nH]3)c2c1 [Example 82] | IC50 | > 100 nM |
| CNCCn1cc(-c2ccc3[nH]nc(-c4nc(C)c[nH]4)c3c2)nn1 [Example 75] | IC50 | > 100 nM |
| Cc1ccc(C(C)Oc2ccc3[nH]nc(-c4cnn(C)c4)c3c2)c2cccnc12 (centres unmarked) [Example 123] | IC50 | > 100 nM |
| COc1cc(OC(C)c2cc(Cl)cc3nccnc23)cc2c(-c3cnn(C)c3)n[nH]c12 (centres unmarked) [Example 226] | IC50 | 1 to 10 nM |
| CNCCNC(=O)c1cc(F)c2[nH]nc(-c3cnn(CCN4CCOCC4)c3)c2c1 [Example 70] | IC50 | > 100 nM |
| C[C@@H](Oc1cc(F)c2[nH]nc(-c3cnn(CC4CC4)c3)c2c1)c1c(Cl)cncc1Cl [Example 14] | IC50 | 1 to 10 nM |
| C#Cc1cc(C(C)Oc2ccc3[nH]nc(-c4cnn(C)c4)c3c2)c2nccnc2c1 (centres unmarked) [Example 146] | IC50 | 1 to 10 nM |
| Cc1ccnc2cccc(C(C)Oc3ccc4[nH]nc(-c5cnn(C)c5)c4c3)c12 (centres unmarked) [Example 126] | IC50 | 1 to 10 nM |
| CC(Oc1ccc2[nH]nc(-c3cnn(C4CC(S(C)(=O)=O)C4)c3)c2c1)c1cccc2nccnc12 (centres unmarked) [Example 229] | IC50 | < 1 nM |
| Cn1cc(-c2n[nH]c3ccc(OC4CCCc5cnccc54)cc23)cn1 (centres unmarked) [Example 90] | IC50 | > 100 nM |
| C[C@@H](Oc1ccc2[nH]nc(-c3cnn(CCN4CCN(C)CC4)c3)c2n1)c1c(Cl)cncc1Cl [Example 53] | IC50 | < 1 nM |
| C[C@@H](Oc1ccc2[nH]nc(-c3cnn(CC(=O)N4CCOCC4)c3)c2n1)c1c(Cl)cncc1Cl [Example 63] | IC50 | 1 to 10 nM |
| C[C@@H](Oc1cc(F)c2[nH]nc(-c3cnn(CCN(C)C)c3)c2c1)c1c(Cl)cncc1Cl [Example 15] | IC50 | 1 to 10 nM |
| CC(Oc1ccc2[nH]nc(-c3cnn(C4COC4)c3)c2c1)c1cc(Cl)cc2nccnc12 (centres unmarked) [Example 239] | IC50 | 1 to 10 nM |
| CC(Oc1ccc2[nH]nc(-c3cnn(C)c3)c2c1)c1ccn2ccnc2c1 (centres unmarked) [Example 89] | IC50 | > 100 nM |
| CC(Oc1ccc2[nH]nc(-c3cnn(C)c3)c2c1)c1cccc2cccnc12 (centres unmarked) [Example 105] | IC50 | 10 to 100 nM |
| CC(Oc1ccc2[nH]nc(-c3cnn(C)c3)c2c1)C1CCOCC1 (centres unmarked) [Example 86] | IC50 | > 100 nM |
| Cc1c[nH]c(-c2n[nH]c3ccc(C(=O)NCC4CCNC4)cc23)n1 (centres unmarked) [Example 79] | IC50 | > 100 nM |
| CC(Oc1ccc2[nH]nc(-c3cnn(C)c3)c2c1)c1cc(C2CC2)cc2ncccc12 (centres unmarked) [Example 164] | IC50 | 1 to 10 nM |
